Reported T/C by item:
Tested on: L1210 leukemia ip in BDF1 mice, survival T/C
MEASUREMENT_NOTES: NCI In Vivo Anticancer Drug Screen. Data for tumor model L1210 Leukemia (intraperitoneal) in B6D2F1 (BDF1) mice
PARTICULARS: endpoint: mean survival time; dose: 50.0 mg/kg/injection; schedule: Q01DX001 (ip); vehicle: carboxymethylcellulose (CMC); higher = longer survival
Toxic doses and inconclusive results are not listed.

A selection of reference data follows.
Query: What value of T/C has been recorded for this entry: `O=C(CCc1ccncc1)c1ccccc1`
Result: 114 % of control

Query: Thanks! And `CCC(/C=N\NC(=O)CCCC(=O)N/N=C/C(CC)CC)CC` ?
Result: 90 % of control

Query: Try this molecule too: `CN=NNc1nc[nH]c1C(=O)OC`
Result: 118 % of control

Query: And the next one, `Nc1c(N=O)c(=O)n(Cc2ccccc2)c(=O)n1Cc1ccccc1` ?
Result: 103 % of control

Query: Entry to check: `C1=C(c2ccccc2)N2CCN=C2S1`
Result: 100 % of control

***
Query: Quick one: T/C of CC(=O)OCC1OC(n2cc(C)c(=O)[nH]c2=O)C(NC(=O)C(Cl)(Cl)Cl)C(OC(C)=O)C1OC(C)=O (stereo not drawn) ?
Result: 105 % of control

Query: Likewise for `O=C(Nc1cccc(Cl)c1)Nc1cc(C(F)(F)F)ccc1Cl` ?
Result: 96 % of control

Query: And what about the molecule CCCCCCCCN1N=CC(CC)C1CCC (stereo not drawn) ?
Result: 105 % of control
